melting point values by entry
measured_quantity: melting point

{"molecule": "Cc1nccn1-c1ccc(-c2cnc([C@H](Cc3ccccn3)N(C=O)c3cc4ccccc4o3)n2C)cc1", "observed_measurement": "167 to 171 °C"}
{"molecule": "Cc1cc(Nc2ccc(O)cc2)c2[nH]ncc2n1", "observed_measurement": "174 to 176 °C"}
{"molecule": "CC(C)(C)NCC(O)c1ccc(N)c(C#N)c1Cl (stereo not drawn)", "observed_measurement": "85 to 88 °C"}

###

melting point values by entry

{"molecule": "COc1c(CBr)c(OC)c(CBr)c(OC)c1CBr", "reading_unit": "°C", "melting point": 126}
{"molecule": "CCCCCc1ccc(-c2ccc(CCC3(C#N)CCCC(C)C3)cc2)cc1 (stereo not given)", "reading_unit": "°C", "melting point": 73}

###

melting point values by entry
measured_quantity: melting point

{"compound": "COc1ccc(-c2cc3c(OC)cc(OC)cc3nc2OCC#N)cc1", "observed_measurement": "149 to 150 °C"}
{"compound": "O=Cc1cc(Cl)cc2c1OC(C(F)(F)F)C(C(=O)O)=C2 (stereo not drawn)", "observed_measurement": "243 to 252 °C"}
{"compound": "CN1CCN(c2cc3c(cc2F)c(=O)n(O)c(=O)n3-c2ccccc2F)CC1", "observed_measurement": "160 to 162 °C"}

###

measured_quantity: melting point

{"compound": "COc1ccc(-c2csc(Nc3cc4ccccc4cn3)n2)cc1", "observed_measurement": "224 to 228 °C"}
{"compound": "C[C@@H]1C[C@H](C)CN(S(=O)(=O)c2ccc(Cl)c(C(=O)NCC(=O)O)c2)C1", "observed_measurement": "190 to 192 °C"}
{"compound": "CS(=O)(=O)c1ccc(-c2cnn(CC(F)(F)F)c(=O)c2Nc2ccc(F)cc2F)cc1", "observed_measurement": "170 to 175 °C"}
{"compound": "CCC(=O)NCCC1CCc2cc(Br)c3c(c21)CC(C)(C)O3 (stereo unspecified)", "observed_measurement": "98 to 101 °C"}
{"compound": "N#Cc1nc(-c2c(Cl)cc(C(F)(F)F)cc2Cl)[nH]c1C#N", "observed_measurement": "194 to 195 °C"}
{"compound": "Cc1oc(-c2ccccc2)nc1COc1ccc(Cn2cc(CCCCC(=O)O)c(-c3ccccc3)n2)cc1", "observed_measurement": "109 to 110 °C"}

###

melting point values by entry
measured_quantity: melting point

{"compound": "CC(C)(C)OC(=O)C1(N)C=CC(C(=O)O)C1 (stereo not given)", "measured_quantity": "melting point", "observed_measurement": "126 to 127 °C"}
{"compound": "C[C@@]1(CO)CCC(=O)O1", "measured_quantity": "melting point", "observed_measurement": "44.5 to 46.5 °C"}
{"compound": "CCOC(=O)c1cc2c(nc1C)C(=Cc1ccc(OC(C)=O)cc1)CCC2", "measured_quantity": "melting point", "observed_measurement": "112 °C"}
{"compound": "COc1cc(N)c(Cl)cc1C(=O)NCC1CCN(CCCCC(=O)c2cn(C)c3ccccc23)CC1", "measured_quantity": "melting point", "observed_measurement": "87 to 89 °C"}
{"compound": "O=[N+]([O-])c1ccc(CCN2CCN(c3ccc([N+](=O)[O-])cc3)CC2)cc1", "measured_quantity": "melting point", "observed_measurement": "143 to 145 °C"}
{"compound": "CC(C)C(=O)NCCNCC(O)COc1ccccc1 (single isomer, unassigned; (-))", "measured_quantity": "melting point", "observed_measurement": "89 to 91 °C"}
{"compound": "O=C(CCCCCCOc1ccc(O)cc1)C(F)(F)F", "measured_quantity": "melting point", "observed_measurement": "61 to 62 °C"}
{"compound": "Cc1cc(C)cc(C(=O)Cc2ccnc(NC(=O)OC(C)(C)C)c2)c1", "measured_quantity": "melting point", "observed_measurement": "133 to 136 °C"}
{"compound": "Fc1cccc(F)c1C1=NCC(=S)Nc2ccc(Cl)cc21", "measured_quantity": "melting point", "observed_measurement": "222 to 224 °C"}
{"compound": "CCOC(=O)c1c(C)cc2nc(C)n(-c3ccccc3Cl)c(=O)c2c1C", "measured_quantity": "melting point", "observed_measurement": "131 to 132 °C"}
{"compound": "NC(=S)NN=C(COC(=O)Nc1ccccc1)c1ccccc1", "measured_quantity": "melting point", "observed_measurement": "155 to 165 °C"}
{"compound": "CSc1ccc(CSc2cccc(C(=O)Nc3ccc(Cl)cn3)c2)cc1", "measured_quantity": "melting point", "observed_measurement": "159 to 161 °C"}
{"compound": "O=[N+]([O-])c1cccc(NC(=S)NCc2cccnc2)c1", "measured_quantity": "melting point", "observed_measurement": "159 °C"}
{"compound": "CC(C(=O)O)c1cc(F)c([N+](=O)[O-])cc1[N+](=O)[O-] (stereo not given)", "measured_quantity": "melting point", "observed_measurement": "141 to 142 °C"}
{"compound": "O=C1CN(c2ccc(Cl)cc2)C(=O)N1C(=O)c1c(Cl)cccc1Cl", "measured_quantity": "melting point", "observed_measurement": "176 to 180 °C"}
{"compound": "Cc1c[nH]c(=O)nc1OCc1ccccc1", "measured_quantity": "melting point", "observed_measurement": "181 to 182 °C"}
{"compound": "COc1nc(C)nc(NC(=O)NS(=O)(=O)c2csc3ccccc23)n1", "measured_quantity": "melting point", "observed_measurement": "187 to 188 °C"}
{"compound": "Cc1noc(C)c1-c1ccccc1C=NC(c1ccccc1)c1ccccc1", "measured_quantity": "melting point", "observed_measurement": "165 to 167 °C"}
{"compound": "COc1ccc(CN2C(=O)C(C)(c3cc(C(=O)N4CCCCC4C(=O)N(C)CC(F)(F)F)ccc3Cl)c3cc(Cl)ccc32)c(OC)c1 (stereo not given)", "measured_quantity": "melting point", "observed_measurement": "99 °C"}
{"compound": "O=C(Cn1ccnc1)c1ccc(-c2ccccc2)cc1", "measured_quantity": "melting point", "observed_measurement": "198 °C"}
{"compound": "CC(C)(C)c1cc(C(=O)Nc2ccccc2NC(=O)NCC(c2ccccc2)c2ccccc2)cc(C(C)(C)C)c1O", "measured_quantity": "melting point", "observed_measurement": "198 to 200 °C"}
{"compound": "Brc1ccc(-c2cc3nccnc3[nH]2)cc1", "measured_quantity": "melting point", "observed_measurement": "326 to 329 °C"}
{"compound": "CC(=O)Nc1cc(C(C)=O)ccc1OCCCCl", "measured_quantity": "melting point", "observed_measurement": "124 to 126 °C"}
{"compound": "COC(=O)C(Cl)=Cc1ccc(Cl)cc1", "measured_quantity": "melting point", "observed_measurement": "78 to 80 °C"}
{"compound": "CCCCOc1c(CNC(=O)OC(C)(C)C)n(CC(C)C)c(=O)c2ccc(-c3nc(C)c(C(N)=O)s3)cc12", "measured_quantity": "melting point", "observed_measurement": "234 °C"}
{"compound": "O=C(Nc1ccc(-n2nc(C(F)(F)F)cc2C2CC2)nc1)c1c(Cl)cncc1Cl", "measured_quantity": "melting point", "observed_measurement": "223 to 225 °C"}
{"compound": "O=[N+]([O-])c1ccc(SNc2nccs2)c(C(Cl)(Cl)Cl)c1", "measured_quantity": "melting point", "observed_measurement": "165 °C"}
{"compound": "CCc1noc(C)c1-c1[nH]c2ccccc2c1C(=O)C(=O)N(C)C", "measured_quantity": "melting point", "observed_measurement": "212 to 215 °C"}
{"compound": "OCC(Cl)=C(Cl)CC(O)(Cn1cncn1)C1(Cl)CC1 (stereo not given)", "measured_quantity": "melting point", "observed_measurement": "130 to 132 °C"}
{"compound": "O=C(Cc1ccc(NC(=O)c2cn3c4c(cccc24)CCC3)cc1)NO", "measured_quantity": "melting point", "observed_measurement": "199 to 202 °C"}
{"compound": "CCOC(=O)c1oc2ccc(Cl)cc2c1O", "measured_quantity": "melting point", "observed_measurement": "100 to 102 °C"}
{"compound": "COc1ccccc1-n1c(=O)[nH]c2ccc(-c3cccc(O)c3)nc21", "measured_quantity": "melting point", "observed_measurement": "240 to 242 °C"}
{"compound": "O=C(O)CC1(CC(O)=NO)CCCCC1", "measured_quantity": "melting point", "observed_measurement": "104 °C"}
{"compound": "COc1ccnc(C(=O)N[C@H]2COC(=O)[C@H](Cc3ccccc3)[C@@H](OCSC)[C@H](C)OC2=O)c1O", "measured_quantity": "melting point", "observed_measurement": "159 to 160 °C"}
{"compound": "COc1ccc(C(=O)[C@H]2CC=CC[C@H]2C(=O)O)cc1OC (relative stereo)", "measured_quantity": "melting point", "observed_measurement": "110 to 112 °C"}
